Source listed as the supplement of paper PMC12783771.

B1: library; numbered along this chain (parent)
chain: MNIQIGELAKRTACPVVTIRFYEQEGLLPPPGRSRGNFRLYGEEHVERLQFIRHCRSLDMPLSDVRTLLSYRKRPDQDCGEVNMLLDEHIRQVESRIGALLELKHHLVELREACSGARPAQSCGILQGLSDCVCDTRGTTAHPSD

- Variants of: B1
- ASSAY_OVERVIEW: sfGFP reporter fluorescence (15 h) (µM FITC); higher = higher leak
- MEASUREMENT_PARAMETERS: library round: Round 0; ligand: none
ASSAY_READOUT: sfGFP reporter fluorescence
Answers are plain numbers.

Some variants with recorded sfGFP reporter fluorescence:
{"ALTERATION": "V82Q", "ASSAY_READOUT": "sfGFP reporter fluorescence", "VALUE_OBSERVED": 0.0579}
{"ALTERATION": "K104W", "ASSAY_READOUT": "sfGFP reporter fluorescence", "VALUE_OBSERVED": 0.0574}
{"ALTERATION": "G128E", "ASSAY_READOUT": "sfGFP reporter fluorescence", "VALUE_OBSERVED": 0.0599}
{"ALTERATION": "V46Q", "ASSAY_READOUT": "sfGFP reporter fluorescence", "VALUE_OBSERVED": 0.0544}
{"ALTERATION": "L58T", "ASSAY_READOUT": "sfGFP reporter fluorescence", "VALUE_OBSERVED": 0.0588}
{"ALTERATION": "L129N", "ASSAY_READOUT": "sfGFP reporter fluorescence", "VALUE_OBSERVED": 0.0586}
{"ALTERATION": "L107R", "ASSAY_READOUT": "sfGFP reporter fluorescence", "VALUE_OBSERVED": 0.059}
{"ALTERATION": "R11A", "ASSAY_READOUT": "sfGFP reporter fluorescence", "VALUE_OBSERVED": 0.0548}

Kindly give each listed record's sfGFP reporter fluorescence.
1. R33I
2. G128L
3. L28H
4. M60L G128I

result:
1: 0.0577; 2: 0.0715; 3: 0.0625; 4: 0.336

I would be grateful if you could provide sfGFP reporter fluorescence for each of the following entries.
1. K104E
2. C134G
3. P15W
4. I90W
5. E102A
6. R53A

result:
0.0552
0.0651
0.061
0.0585
0.0735
0.0614

List sfGFP reporter fluorescence for every entry below, keeping the order given.
1. I3A
2. G124A

result:
0.0544
0.0592

For every listed record, write down its sfGFP reporter fluorescence.
1. F21Q
2. C55L
3. C55A
4. C114K
5. E94C
6. E43A

result:
[0.0605, 0.0608, 0.0647, 0.0583, 0.0645, 0.063]
